system: Wolbachia pipientis; test: Anti-Wolbachia Cell-Based Screen; assay type: functional; design: scale not given: in the data most compounds retested in dose-response had high values; conditions: 5 µM
The campaign covered roughly 48,000 compounds. About 13,000 (27%) showed an effect of 50% or more. Some of the results follow.
METRIC: Percent Effect (%)
Numbers only, in %.

[[record]]
molecule = "O=C(O)C(F)(F)F.c1cncc(CN2C[C@H]3CCC[C@@H](CNc4cnccn4)[C@H]3C2)c1"
assay_system = "Wolbachia pipientis"
metric = "Percent Effect"
numeric_value = 134.5


Hey, can you go through the list below and give me Percent Effect for every item?
1. CNc1nc(C(=O)N2C[C@@H]3CCN(C)[C@@H]3C2)cs1
2. Cc1cccc(CN2CC[C@H]3OCC[C@@]3(C(=O)N3CCCO3)C2)n1.O=C(O)C(F)(F)F.O=C(O)C(F)(F)F
3. O=C(O)C(F)(F)F.c1cnc(NC[C@@H]2CCC[C@@H]3CN(Cc4csnn4)C[C@@H]32)nc1
4. COc1ccc(CN2C[C@H]3CCC[C@@H](CN(C)C)[C@H]3C2)cn1.O=C(O)C(F)(F)F.O=C(O)C(F)(F)F
5. O=C(N1CCCO1)[C@@]12CCO[C@@H]1CCN(Cc1ccccn1)C2.O=C(O)C(F)(F)F.O=C(O)C(F)(F)F
6. O=C(C1CCCC1)N1C[C@@H]2CCNC[C@@H]21
7. Cc1ccc(-c2noc(CC[C@@H]3CCCN4CCCC[C@H]34)n2)nn1
8. Cn1cc(CN2C[C@H]3CCC[C@@H](CNc4ncccn4)[C@H]3C2)cn1.O=C(O)C(F)(F)F

2.53
104.8
17.75
10.6
114.4
-32.69
-24.46
111.9
